- Method summary: qHTS assay to identify small molecule inhibitors of chordoma cells - UCH-2 (AID 1259356)
- Experimental setup: UCH-2 chordoma viability, CellTiter-Glo ATP luminescence, 48 h; series mostly up to 46.1 µM
Records with an inconclusive call do not appear. Active and inactive are the calls of the source. Calls come from the whole dose curve; as a rule, active = well fitted cell-killing curve with a large enough effect; inconclusive = small, poorly fitted or top-dose-only effect; inactive = flat fitted curve, though single readings scatter.
Please answer using one outcome listed in Yes (active), No (inactive)

Some solved cases for reference:
Molecule: Cc1ccc(Cl)c(O)c1
Classification: No
//
Molecule: CCCCCCCCCC(CC)c1ccc(S(=O)(=O)O)cc1 (stereo not given)
Classification: No
//
Molecule: NC1=NC(=O)N2CC12 (stereo not given)
Classification: No
//
Molecule: CC(Cc1ccc(O)cc1)NCC(O)c1cc(O)cc(O)c1 (stereo not given)
Classification: No
//
Molecule: CN(C)[C@@H]1C(=O)C(C(N)=O)=C(O)[C@@]2(O)C(=O)C3=C(O)c4c(O)cccc4[C@@](C)(O)[C@H]3[C@H](O)[C@@H]12
Classification: No
//
Molecule: CC(=O)[O][Hg][c]1ccccc1
Classification: Yes
//
Molecule: CN[C@@H]1C[C@@H](c2ccc(Cl)c(Cl)c2)c2ccccc21
Classification: No
//
Molecule: CC[N+]1(CCOC(=O)C(O)(c2ccccc2)c2ccccc2)CCCCC1
Classification: No

Each molecule tested received a call. Report the one for COC(=O)c1cncn1C(C)c1ccccc1 (stereo not given) .
No

Each molecule tested received a call. Report the one for `O=[N+]([O-])/N=C1\NCCN1Cc1ccc(Cl)nc1` .
No

Each molecule tested received a call. Report the one for CC(C)NC(C)Cc1ccc(I)cc1 (stereo not given) .
No

Each molecule tested received a call. Report the one for `CN[C@@H](C)[C@H](O)c1ccccc1` .
No

Each molecule tested received a call. Report the one for `O=C1C(I)=CC(=C(c2cc(I)c(O)c(I)c2)c2ccccc2C(=O)O)C=C1I` .
No

Each molecule tested received a call. Report the one for `C[N+](C)(C)CC(=O)O` .
No

Each molecule tested received a call. Report the one for `C[C@]12N[C@H](Cc3ccccc31)c1ccccc12` .
No

---

- Method summary: qHTS for Inhibitors of the Functional Ribonucleoprotein Complex (vRNP) of Lassa (LASV) Arenavirus: Viability assay - alamar blue signal for LASV Primary Screen (AID 1347083); note: nearly all actives have a fitted effect of over 80% in size; note: potency is the fitted concentration of half-maximal effect
- Experimental setup: cell viability, alamar blue fluorescence (LASV minigenome counter-screen); series mostly up to 57.5 µM
Records with an inconclusive call do not appear. Calls of active or inactive are those of the source. Calls come from the whole dose curve; tested in HEK293 reporter line.
Readout name: Potency

Molecule: C=CC(=O)Nc1cc2c(Nc3ccc(F)c(Cl)c3)ncnc2cc1C#CC(C)(C)N1CCN(C)CC1
Potency: inactive
--
Molecule: CC(C)(C)c1nnc(NS(=O)(=O)c2ccccc2)s1
Potency: inactive
--
Molecule: C[C@H]([C@H](O)CCC(C)(C)O)[C@H]1CC[C@@]2(O)C3=CC(=O)[C@@H]4C[C@@H](O)[C@@H](O)C[C@]4(C)[C@@H]3CC[C@]12C
Potency: inactive
--
Molecule: CC(C)NC(C)Cc1ccc(I)cc1 (stereo not drawn)
Potency: inactive
--
Molecule: N#Cc1c(O)c2c(-c3ccc(-c4ccccc4O)cc3)csc2[nH]c1=O
Potency: inactive
--
Molecule: CCCCOCCOc1nc(-c2ccc(C(=O)O)c(F)c2)sc1C
Potency: inactive
--
Molecule: O=C(O)[C@@H](c1ccc(OCc2ccc3ccccc3n2)cc1)C1CCCC1
Potency: inactive
--
Molecule: COc1cccc2c1[C@]13CCN(CC4CC4)[C@H](C2)[C@]1(OC)CCC(=O)C3
Potency: inactive
--
Molecule: CC1(N2CCC(n3c([C@@H]4CCCNC4)nc4ccccc43)CC2)CCCCCCC1
Potency: inactive
--
Molecule: Cc1ccccc1C(C(=O)NC1CCCC1)N(C(=O)Cn1cnc2ccccc21)c1cccc(F)c1 (stereo not drawn)
Potency: inactive

Hello, I would appreciate it if you could give Potency for each entry below.
1. Cc1cc(O)ccc1Cl
2. CC1=C(/C=C/C(C)=C/C=C/C(C)=C/C(=O)O)C(C)(C)CCC1

1. inactive
2. inactive

Hello, I would appreciate it if you could give Potency for each entry below.
1. CCNC(=O)c1noc(-c2cc(C(C)C)c(O)cc2O)c1-c1ccc(CN2CCOCC2)cc1
2. CCOc1cc2ncc(C#N)c(Nc3ccc(F)c(Cl)c3)c2cc1NC(=O)C=CCN(C)C
3. C[C@@H]1CC[C@H]2[C@@H](C)C(=O)O[C@@H]3O[C@@]4(C)CC[C@H]1[C@]32OO4
4. C1Cc2[nH]nc(-c3nn[nH]n3)c2C1
5. Cc1cccc(C#Cc2ccccc2)n1
6. CCOC(=O)c1cccnc1
7. CCCN(CCC)[C@@H]1CCc2ccc(O)cc2C1

["0.273 µM (active)", "1.93 µM (active)", "inactive", "inactive", "inactive", "inactive", "inactive"]

Hello, I would appreciate it if you could give Potency for each entry below.
1. COc1cc2ncnc(-n3nc(-c4ccccn4)nc3N)c2cc1OC
2. O=[N+]([O-])c1cccc(S(=O)(=O)NCCNS(=O)(=O)c2cccc([N+](=O)[O-])c2)c1
3. NC(CCP(=O)(O)O)C(=O)O (stereo not drawn)
4. O=c1cccc2n1CC1CNC[C@H]2C1
5. CC1(C)Cc2c(-c3ccccc3)c(-c3ccc(Cl)cc3)c(CC(=O)O)n2C1
6. C[C@]12CC[C@H](O)CC1=CC[C@@H]1[C@H]2CC[C@]2(C)C(c3cccnc3)=CC[C@H]12
7. OCCn1cc(-c2cnc3nnn(Cc4ccc5ncccc5c4)c3n2)cn1

1. 19.3 µM (active)
2. inactive
3. inactive
4. 27.3 µM (active)
5. inactive
6. inactive
7. inactive

Hello, I would appreciate it if you could give Potency for each entry below.
1. CCNC(=O)CC1N=C(c2ccc(Cl)cc2)c2cc(OC)ccc2-n2c(C)nnc21 (stereo not drawn)
2. CCCN(CCC)C1CCc2ccc(O)cc2C1 (stereo not drawn)
3. OC[C@H]1O[C@@H](n2cnc3c2NC=NC[C@@H]3O)C[C@H]1O
4. CCCCC(CC)COC(=O)c1ccc(N(C)C)cc1 (stereo not drawn)
5. CC(C)(C)NC[C@H](O)c1ccc(O)cc1Cl
6. O=C1[C@H](Cc2ccc(O)cc2)N2C(=O)CCN(C(=O)NCc3ccccc3)[C@H]2CN1Cc1cccc2ccccc12
7. O=C(Nc1cccnc1)N1CCC(Cc2cccc(Oc3ccc(C(F)(F)F)cn3)c2)CC1
8. CCCCCCCCCCCCCC(=O)OC(C)C

7.69 µM (active)
inactive
inactive
inactive
inactive
19.3 µM (active)
15.3 µM (active)
inactive

Hello, I would appreciate it if you could give Potency for each entry below.
1. C[C@@H]1O[C@H](C[N+](C)(C)C)C[C@H]1O
2. O=C(NOC[C@H](O)CO)c1ccc(F)c(F)c1Nc1ccc(I)cc1F
3. C[N+]1(C)C2CCC1CC(OC(=O)C(CO)c1ccccc1)C2 (stereo not drawn)
4. CC(=Cc1csc(C)n1)[C@@H]1C[C@H]2O[C@]2(C)CCC[C@H](C)[C@@H](O)[C@@H](C)C(=O)C(C)(C)[C@@H](O)CC(=O)O1

inactive
inactive
inactive
inactive

Hello, I would appreciate it if you could give Potency for each entry below.
1. O=C(O)CC[N+](=O)[O-]
2. CN(C)CCCNC(=O)c1ccc(-c2cc(O)c3ncccc3c2)cc1
3. COc1cccc(OC)c1-c1cc(C(=O)NC2(C(=O)O)C3CC4CC(C3)CC2C4)nn1-c1ccnc2cc(Cl)ccc12 (stereo not drawn)
4. C[C@@H]1O[C@@H](O[C@@H]2C=C3CC[C@@H]4[C@@H](CC[C@]5(C)[C@H](c6ccc(=O)oc6)CC[C@@]45O)[C@@]3(C)CC2)[C@H](O)[C@H](O)[C@H]1O

1: inactive; 2: 38.5 µM (active); 3: inactive; 4: 0.0685 µM (active)

Field Potency (entry `COc1ccc(CCN2CCN(CCCc3ccccc3)CC2)cc1OC` ) reads inactive

---

- Method summary: qHTS of pediatric cancer cell lines to identify multiple opportunities for drug repurposing: Confirmatory screen for LAN-5 cells (AID 1347113); note: nearly all actives have a fitted effect of over 65% in size
- Experimental setup: LAN-5 neuroblastoma cell viability; series mostly up to 45.9 µM
Results filed as inconclusive are left out. Calls of active or inactive are those of the source. The call rests on the fitted dose curve; in most records, active means well fitted cell-killing curve with a large enough effect; inconclusive means small, poorly fitted or top-dose-only effect, or effect the other way; inactive means no such curve, though single readings can be large or run the other way.
Please answer using one outcome listed in TRUE for active, FALSE for inactive

Some solved cases for reference:
Compound: CC(C)(O)C=CC(=O)[C@](C)(O)[C@H]1[C@H](O)C[C@]2(C)[C@@H]3CC=C4[C@@H](C=C(O)C(=O)C4(C)C)[C@]3(C)C(=O)C[C@@]12C
Classification: TRUE
//
Compound: CC[C@@]1(O)C(=O)OCc2c1cc1n(c2=O)Cc2cc3ccccc3nc2-1
Classification: TRUE
//
Compound: CC=C(C)C(=O)N[C@@H](c1ccccc1)[C@@H](O)C(=O)O[C@H]1C[C@@]2(O)[C@@H](OC(=O)c3ccccc3)[C@@H]3[C@]4(OC(C)=O)CO[C@@H]4C[C@H](O)[C@@]3(C)C(=O)[C@H](OC(C)=O)C(=C1C)C2(C)C
Classification: FALSE
//
Compound: O=C(O)COc1nc(Cl)c(Cl)cc1Cl
Classification: FALSE
//
Compound: S=C(SSC(=S)N1CCCCC1)N1CCCCC1
Classification: TRUE
//
Compound: C[C@@]12OC(=O)[C@]1([C@@H](O)[C@@H]1C=CCCC1)NC(=O)[C@H]2CCCl
Classification: TRUE
//
Compound: CCCCCC[C@H]1C(=O)O[C@H](C)[C@H](NC(=O)c2cccc(NC=O)c2O)C(=O)O[C@@H](C)[C@@H]1OC(=O)CC(C)C
Classification: TRUE
//
Compound: CC[C@@H]1[C@@H](C)O[C@@](O)([C@@H](C)[C@H](O)[C@H](C)[C@H]2OC(=O)C=CC=C[C@@H](C)[C@@H]([C@@H](C)[C@@H](O)[C@H](C)[C@@]3(O)C[C@H](O[C@H]4C[C@H](O)[C@H](O)[C@H](C)O4)[C@H](CC)[C@@H](C)O3)OC(=O)C=CC=C[C@@H]2C)C[C@H]1O[C@H]1C[C@H](O)[C@H](O)[C@H](C)O1
Classification: FALSE
//
Compound: C[C@@H]1CC[C@@]2(OC1)O[C@H]1C[C@H]3[C@@H]4CC=C5C[C@@H](O[C@@H]6O[C@H](CO)[C@@H](O[C@@H]7O[C@@H](C)[C@H](O)[C@@H](O)[C@@H]7O)[C@H](O)[C@@H]6O[C@@H]6O[C@@H](C)[C@H](O)[C@@H](O)[C@@H]6O)CC[C@]5(C)[C@@H]4CC[C@]3(C)[C@@H]1[C@H]2C
Classification: TRUE
//
Compound: O=C(N[C@H]1CN2CCC1CC2)c1ccc(Cl)cc1
Classification: TRUE

Each compound tested received a call. Report the one for Cc1c(N)nc([C@H](CC(N)=O)NC[C@@H](N)C(N)=O)nc1C(=O)N[C@H](C(=O)N[C@@H](C)[C@H](O)[C@@H](C)C(=O)N[C@@H](C(=O)NCCc1nc(-c2nc(C(=O)NCCC[S+](C)C)cs2)cs1)[C@@H](C)O)C(O[C@H]1O[C@H](CO)[C@H](O)[C@@H](O)[C@@H]1O[C@H]1O[C@H](CO)[C@@H](O)[C@H](OC(N)=O)[C@H]1O)c1cnc[nH]1 (stereo not given in full) .
FALSE

Each compound tested received a call. Report the one for `CC(C)[C@]12O[C@@H]1[C@@H]1O[C@]13[C@]1(O[C@H]1C[C@@H]1C4=C(CC[C@@]13C)C(=O)OC4)[C@H]2O` .
TRUE

Each compound tested received a call. Report the one for `CCCN1CCO[C@@H]2c3cc(O)ccc3OC[C@@H]21` .
FALSE

Each compound tested received a call. Report the one for `Cc1ccccc1-n1c(Cn2ncc3c(N)ncnc32)nc2cccc(C)c2c1=O` .
TRUE

Each compound tested received a call. Report the one for `O=C(O)CCCOc1ccc(Cl)cc1Cl` .
FALSE

Each compound tested received a call. Report the one for `COc1cc2cc(c1Cl)N(C)C(=O)C[C@H](OC(=O)C(C)C)[C@]1(C)O[C@H]1[C@H](C)[C@@H]1C[C@@](O)(NC(=O)O1)[C@H](OC)C=CC=C(C)C2` .
TRUE

Each compound tested received a call. Report the one for `CS(=O)(=O)c1ccc(C(=O)C2C(=O)CCCC2=O)c([N+](=O)[O-])c1` .
FALSE

Each compound tested received a call. Report the one for CCC(=O)OC1CCC2C3CCC4=CC(=O)CC[C@@]4(C)C3CC[C@]12C (stereo not given in full) .
FALSE

Each compound tested received a call. Report the one for `C=CCON=C(C[C@H]1O[C@@H]2O[C@]3(C)CC[C@@H]4[C@H](C)CC[C@@H]([C@H]1C)[C@@]24OO3)[C@H]1O[C@@H]2O[C@]3(C)CC[C@H]4[C@H](C)CC[C@@H]([C@@H]1C)[C@@]24OO3` .
TRUE

Each compound tested received a call. Report the one for `O=c1[nH]c2ccc(Cl)cc2c(N[C@@H]2CN3CCC2CC3)c1-c1nc2ccccc2[nH]1` .
TRUE
